Measured values drawn from patent US20250346673A1 for this set.

Recorded measurements of EC50, one per entry
# SUBJECT OF TEST: T1, cynomolgus BDCA2 (cynomolgus monkey, UniProt A0A2K5UWP4 1-212)
# T1 construct: whole, on cells; also called Cyno BDCA2; cynoBDCA2
# T1 sequence: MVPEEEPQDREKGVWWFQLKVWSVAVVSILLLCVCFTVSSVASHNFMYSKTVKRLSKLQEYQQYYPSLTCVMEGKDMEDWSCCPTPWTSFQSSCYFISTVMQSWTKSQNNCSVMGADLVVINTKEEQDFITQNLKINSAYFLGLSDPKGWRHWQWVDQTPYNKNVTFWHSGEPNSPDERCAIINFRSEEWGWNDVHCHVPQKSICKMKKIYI
# EXPERIMENT DESCRIPTION: FACS on 293F-cynoBDCA2 cells; EC50 table under the plot, unit from the x axis (nM) [continued) d.]
Please state the figure in nM; there is no need to write the unit.

mAb024 (antibody, V domains shown, Mouse hybridoma antibody) VH: EVQLVESGGDLVKPGGSLKLSCAASGFTFSSFGMSWVRQTPDKRLDWVATISSGDSYTYYPDSVKGRFSISRDNAKNTLYLQMSSLKSEDTAVYYCARQIYYDYAYYFDYWGQGTTLTVSS VL: DIVLTQSPASLAVSLGQRATISCRASESVSFRSSHLMHWYRQKPGQPPKLLIYAASNLESGVPARFSGSGSETDFTLNIHPVEEEDAAAYFCQQSIEDPPTFGGGTKLEIK = 1.04

Turning now to a further binder:
The value of EC50 measured for the binder mAb030 (antibody, V domains shown, Mouse hybridoma antibody) VH: DVQLQESGPGLVKPSQSLSLTCSVTGYSITSAYYWNWIRQFPGNKLECMGYISYDGSNYYNPSLKNRISITRDTSKNQFFLSLNSVTTEDTATYFCVRGGDYDDGGFAYWGQGTLVTVSA VL: DIQMTQSPASLSASVGETVTITCRASGNIHNYLAWYQQKQGKSPQLLVYNAKTLADGVPSRFSGSGSETQYSLKINSLQPEDFGNYFCQHFWIIPYTFGGGTKLEIK turned out to be 0.566
